All values here come from ChEMBL document CHEMBL2401626.

Reported inhibition is given for each of the following molecules.
target: Amyloid-beta precursor protein (Homo sapiens, UniProt P05067); settings: at 20 µM
Sequence (P05067 whole entry): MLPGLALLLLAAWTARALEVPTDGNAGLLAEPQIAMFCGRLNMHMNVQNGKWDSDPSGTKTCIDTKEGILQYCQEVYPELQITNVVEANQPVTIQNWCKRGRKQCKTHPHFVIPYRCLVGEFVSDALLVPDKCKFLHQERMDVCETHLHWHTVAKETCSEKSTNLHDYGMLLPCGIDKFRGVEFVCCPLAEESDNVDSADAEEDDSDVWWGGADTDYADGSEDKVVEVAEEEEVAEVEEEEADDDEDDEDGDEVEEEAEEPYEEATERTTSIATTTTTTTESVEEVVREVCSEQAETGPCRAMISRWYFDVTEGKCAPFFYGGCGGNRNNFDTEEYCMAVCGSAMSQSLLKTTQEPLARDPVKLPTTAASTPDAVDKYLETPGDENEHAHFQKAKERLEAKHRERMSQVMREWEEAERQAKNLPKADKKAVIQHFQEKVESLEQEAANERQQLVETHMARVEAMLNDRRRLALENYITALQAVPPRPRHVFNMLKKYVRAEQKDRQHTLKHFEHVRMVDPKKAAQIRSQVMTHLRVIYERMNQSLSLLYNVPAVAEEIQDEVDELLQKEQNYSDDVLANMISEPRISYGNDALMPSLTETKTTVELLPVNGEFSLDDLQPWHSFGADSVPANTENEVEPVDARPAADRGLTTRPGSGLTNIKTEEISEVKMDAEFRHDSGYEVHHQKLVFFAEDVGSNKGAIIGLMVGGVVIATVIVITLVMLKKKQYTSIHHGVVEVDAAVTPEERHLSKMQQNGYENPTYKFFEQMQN
Description: Inhibition of self-mediated amyloid beta (1 to 42) aggregation (unknown origin) at 20 uM after 48 hrs by thioflavin T fluorescence assay relative to control
value_kind: inhibition (%)

smiles_repr	value_kind	measured
COc1cc(/C=C/c2ccc(NCc3cc(NC(C)C)ccc3O)cc2)cc(OC)c1	inhibition	50.2
COc1cc(/C=C/c2ccc(NCc3cc([N+](=O)[O-])ccc3O)cc2)cc(OC)c1	inhibition	46.5
CCCNc1ccc(O)c(CNc2ccc(/C=C/c3cc(OC)cc(OC)c3)cc2)c1	inhibition	62.5
Oc1cc(O)cc(/C=C/c2ccc(NCc3cccc(O)c3O)cc2)c1	inhibition	78.8
COc1cc(/C=C/c2ccc(NCc3c[nH]c4ccccc34)cc2)cc(OC)c1	inhibition	24.1
COc1cc(/C=C/c2ccc(NCc3ccc(OC)cc3O)cc2)cc(OC)c1	inhibition	3.98
COc1ccc(/C=C/c2ccc(NCc3cc(N(C)C)ccc3O)cc2)cc1	inhibition	71.2
COc1cc(/C=C/c2ccc(NCc3cccc(OC)c3O)cc2)cc(OC)c1	inhibition	18.1
COc1cc(/C=C/c2ccc(NCc3cc(NCC(C)C)ccc3O)cc2)cc(OC)c1	inhibition	67
Oc1cc(O)cc(/C=C/c2ccc(NCc3ccccc3O)cc2)c1	inhibition	68.1

###

assay: Antioxidant activity assessed as trolox equivalent of AAPH radical scavenging activity at 10 uM preincubated for 10 mins followed by AAPH challenge measured every min for 120 mins by ORAC-FL assay; format: functional
Tick yes (1) if Activity is 5 equiv or greater. Tick no (0) if Activity is less than 5 equiv.

smiles_repr	class_assignment
COc1cc(/C=C/c2ccc(NCc3cc(Cl)ccc3O)cc2)cc(OC)c1	no (0)
COc1cc(/C=C/c2ccc(NCc3cc(N(C)C)ccc3O)cc2)cc(OC)c1	no (0)
COc1cc(/C=C/c2ccc(NCc3ccccc3N(C)C)cc2)cc(OC)c1	yes (1)
Oc1cc(O)cc(/C=C/c2ccc(NCc3ccccc3O)cc2)c1	yes (1)
COc1cc(/C=C/c2ccc(NCc3ccccc3O)cc2)cc(OC)c1	no (0)
COc1cc(/C=C/c2ccc(NCc3cc(NCC(C)C)ccc3O)cc2)cc(OC)c1	no (0)
COc1cc(/C=C/c2ccc(NCc3cc(NC(C)C)ccc3O)cc2)cc(OC)c1	no (0)
COc1cc(/C=C/c2ccc(NCc3c[nH]c4ccccc34)cc2)cc(OC)c1	no (0)
CN(C)c1ccc(/C=C/c2ccc(NCc3cc(N(C)C)ccc3O)cc2)cc1	no (0)
CN(C)c1ccc(O)c(CNc2ccc(/C=C/c3cc(O)cc(O)c3)cc2)c1	no (0)

###

pIC50: −log10 of the molar value.
Measured pIC50 on Acetylcholinesterase (Electrophorus electricus, UniProt O42275) follows.
Sequence (O42275 whole entry): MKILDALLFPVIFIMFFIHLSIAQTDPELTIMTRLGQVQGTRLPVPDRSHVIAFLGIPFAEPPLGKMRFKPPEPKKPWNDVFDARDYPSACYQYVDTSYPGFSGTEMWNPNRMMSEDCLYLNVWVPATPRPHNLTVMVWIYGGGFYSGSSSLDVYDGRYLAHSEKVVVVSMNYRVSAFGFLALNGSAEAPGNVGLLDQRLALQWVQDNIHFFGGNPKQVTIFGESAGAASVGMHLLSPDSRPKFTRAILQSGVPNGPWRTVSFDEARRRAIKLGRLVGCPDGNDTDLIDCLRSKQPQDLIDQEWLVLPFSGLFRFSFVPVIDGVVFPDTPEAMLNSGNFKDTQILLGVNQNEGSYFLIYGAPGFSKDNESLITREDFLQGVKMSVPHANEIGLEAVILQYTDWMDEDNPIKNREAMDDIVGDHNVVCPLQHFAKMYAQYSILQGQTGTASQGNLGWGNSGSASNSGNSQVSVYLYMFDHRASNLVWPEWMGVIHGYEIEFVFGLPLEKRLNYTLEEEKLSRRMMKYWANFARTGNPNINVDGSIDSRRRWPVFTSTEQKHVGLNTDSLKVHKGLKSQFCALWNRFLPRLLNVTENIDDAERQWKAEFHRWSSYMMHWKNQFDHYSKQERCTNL

molecule	experimental_system	pIC50
C#CCN[C@@H]1CCc2ccc(OC(=O)N(C)CC)cc21 [LADOSTIGIL]	Acetylcholinesterase (Electrophorus electricus, UniProt O42275)	4.30
CN(C)c1ccc(O)c(CNc2ccc(/C=C/c3cc(O)cc(O)c3)cc2)c1	Acetylcholinesterase (Electrophorus electricus, UniProt O42275)	5.20
COc1cc(/C=C/c2ccc(NCc3cc(N(C)C)ccc3O)cc2)cc(OC)c1	Acetylcholinesterase (Electrophorus electricus, UniProt O42275)	4.44

###

molecular target: UniProt:P05067; experiment: Induction of disaggregation of self-mediated amyloid beta (1 to 42) fibril (unknown origin) at 25 uM after 24 hrs by thioflavin T fluorescence assay relative to control
Reported Activity is given for each of the following molecules.

smiles_repr	Activity / %
CN(C)c1ccc(O)c(CNc2ccc(/C=C/c3cc(O)cc(O)c3)cc2)c1	82
COc1cc(/C=C/c2ccc(NCc3cc(N(C)C)ccc3O)cc2)cc(OC)c1	67
Oc1ccc(/C=C/c2cc(O)cc(O)c2)cc1	61
Oc1c(I)cc(Cl)c2cccnc12	16.5
